Assay: Human HepG2 cell viability assay in 384 well format
Assay type: toxicity, cell-based
Design: dose 125 nL, time 70.5 hour; concentration not given beside the values
Details: HepG2 cells, read-out: Inhibition
MEASURED PROPERTY: cytotoxicity at 70.5 h (%)
Give a bare numeral; the unit % is implied.

Please review the entries below; each comes with its answer.
In [3]: df
Out[3]:
                                   compound  numeric_readout
0  Cc1nccn1-c1cc(CNC(=O)C2CCC(=O)NC2)ccn1 (stereo unspecified)             12.3
1  O=C(NCc1cc(=O)n2c(n1)CN(CC1CC1)CCC2)c1ccsc1             17.3
2  CCc1ocnc1C(=O)N1CCOC(c2nc(C)n[nH]2)C1 (stereo unspecified)            -1.72

Given the entry CC(C)NC(=O)CCNC(=O)CCc1cc(Br)cs1 , report its measured cytotoxicity at 70.5 h.
-6.47

Would you kindly share the measured cytotoxicity at 70.5 h for Cc1ccc(OCC(C)NS(=O)(=O)N(C)C)cc1 (stereo unspecified) ?
-5.84

Report cytotoxicity at 70.5 h for Cc1ncncc1C(=O)N1CCCC1c1c(C)nn(C)c1Cl (stereo unspecified) please.
-10.6

* * *

Test: Human HepG2 cell viability assay in 384 well format
Format: toxicity, cell-based
Set-up: dose 125 nL, time 70.5 hour; concentration not given beside the values
Conditions: HepG2 cells, read-out: Inhibition
MEASURED PROPERTY: cytotoxicity at 70.5 h (%)
API: value field is a number in %; no unit string.

Example cases with answers are listed next.
In [3]: df
Out[3]:
                                   compound  numeric_readout
0  Cc1nc(CN2C[C@@H]3CN(c4ncc(F)cn4)C[C@@H]3C2=O)cs1            -10.5
1  COc1cc(C)cc(C(C(=O)O)N2CCN(C3CCCC3)CC2)c1OC (stereo unspecified)            -2.66
2       Cn1ncc(C(=O)O)c1C(=O)Nc1nc2ccccc2s1             14.7
3           CC(C)OCCN1CCC(Nc2ncc(Br)cn2)CC1            -7.14
4  CC(C)(C)c1nc(CC(=O)NCCC(=O)Nc2ccncc2)cs1             5.09

Let us examine a further case.
State the recorded cytotoxicity at 70.5 h for this entry: Cn1c(CN2CCOCC2)cc(=O)c(O)c1CN1CCOCC1
-12.3

* * *

Assay: Human HepG2 cell viability assay in 384 well format
Type: toxicity, cell-based
Set-up: dose 125 nL, time 70.5 hour; concentration not given beside the values
Conditions: HepG2 cells, read-out: Inhibition
Overview of recorded cytotoxicity at 70.5 h for various compounds
Entry rule: numbers only, all in %.

Recorded results for 6 compounds are shown here.
                                   compound  numeric_readout
0  CC(c1nccs1)n1cc(-c2cc(CN3CCCCC3)cs2)nn1 (centres undefined)            -4.83
1        CCn1ccnc1CN1CCN(Cc2ccc(C#N)cc2)CC1             28.9
2  CN1CCN(Cc2ccc(-c3ccc(-c4ccn[nH]4)cc3)nc2)CC1           0.0371
3  Cn1cc([C@@H]2CN(S(=O)(=O)c3cccnc3)C[C@H]2N)c2ccncc21               24
4  CCC(CO)N(Cc1ccco1)C(=O)c1cccc(C)c1O (centres undefined)           -0.632
5  CCC(O)C1CCN(C(=O)Nc2nc(-c3ccccc3)ns2)CC1 (centres undefined)             13.7

Looking for the measured cytotoxicity at 70.5 h of COCCOCC(=O)Nc1ccc(Br)cc1F , can you help?
-11

Which cytotoxicity at 70.5 h value belongs to Cn1ncc2c1NC(=O)CSC2c1ccccc1Cl (centres undefined) ?
14.7

Any idea what its cytotoxicity at 70.5 h is? The compound is COCCN1CCOCC2(CCCN(Cc3ccc(C)o3)C2)C1 (centres undefined)
7.21

Give the measured cytotoxicity at 70.5 h of Cc1ccc(S(C)(=O)=O)cc1C(=O)N1CCCC(n2cncn2)C1 (centres undefined) .
-3.44

Using the record for COCCNc1ncnc2c1CCN(C(=O)CC1CCC(=O)N1)CC2 (centres undefined) , report its cytotoxicity at 70.5 h.
-12.7

Item under review: CCc1cnc(C)nc1NCCC(=O)N1CCC(C)CC1 . Reported cytotoxicity at 70.5 h?
-0.743

Recorded cytotoxicity at 70.5 h for Cc1csc(CN2C[C@@H]3CN(CC4CCOCC4)CCO[C@@H]3C2)n1 , please?
-6.62

Requested field: cytotoxicity at 70.5 h. Item: Cc1noc([C@H]2CC[C@@H]3[C@@H](CCN3c3ncccn3)O2)n1
-6.01

Give the measured cytotoxicity at 70.5 h of O=C(c1cc2c(s1)CCC2)N1CCN(c2cnccn2)CC1 .
-14.9

# query: cytotoxicity at 70.5 h of entry Cn1c(Cn2ccnc2)nnc1C1CCN(Cc2cccnc2N)CC1
-9.06

// query cytotoxicity at 70.5 h value for entry CCN1CCN(c2ncc(-c3cc(C)no3)c(-c3ccoc3C)n2)CC1
-2.3

Fill in: cytotoxicity at 70.5 h of CCN(CC)c1ccc2ccc(C(=O)N3CCCCO3)cn12 is ___
3.7

* * *

Experiment: Human HepG2 cell viability assay in 384 well format
Assay type: toxicity, cell-based
Design: dose 125 nL, time 70.5 hour; concentration not given beside the values
Settings: HepG2 cells, read-out: Inhibition
MEASURED PROPERTY: cytotoxicity at 70.5 h

Some compounds with recorded cytotoxicity at 70.5 h:
In [3]: df
Out[3]:
                                   compound  result
0  O=C(O)[C@@H]1CN(C(=O)c2ccc(Cl)cc2)C[C@H]1c1cccc(F)c1  -12.9%
1  COc1cccc(OC)c1CNC(Cc1ccsc1)c1ccc(C)cn1 (configuration not stated)   4.63%
2    Cc1cc(=O)n2nc(CNc3cc(Cl)ccc3C)nc2[nH]1  -9.92%
3  O=C(C1CCC1)N1C[C@@H](c2ccsc2)[C@@H]2CN(C3CCCCC3)CC[C@@H]21   14.8%
4  CN(C)CCNC(=O)C1Cc2nc(-c3ccsc3)sc2N1CC1CC1 (configuration not stated)  -4.49%
5        Cc1ocnc1C(=O)N1CCN(CCOc2ccccc2)CC1  -10.4%
6  CCN1CCC2(CC1)CC(NC(=O)c1c[nH]cn1)c1ccccc1O2 (configuration not stated)  -6.71%
7       Cc1ccc(Cn2c(=O)[nH]c3cccnc3c2=O)cc1  -8.02%

Name the recorded cytotoxicity at 70.5 h for CCCNC(=O)C(C)NC(=O)Nc1ccccc1SC(F)F (configuration not stated) .
-13%

Which cytotoxicity at 70.5 h value belongs to Cc1nc(C2CCCN2Cc2ccn(C)c(=O)c2)no1 (configuration not stated) ?
0.568%

// cytotoxicity at 70.5 h lookup, key: COCCN(Cc1cnn(C)c1)C(=O)C1CCCN(C2CCOCC2)C1 (configuration not stated)
-12.6%

Item CS(=O)(=O)N1Cc2nccn2CC(Cn2ncccc2=O)C1 (configuration not stated) has what recorded cytotoxicity at 70.5 h?
3.97%

Fill blank: measured cytotoxicity at 70.5 h of the compound O=C(NCCC1CCCCO1)c1cc(COc2cncc(Cl)c2)on1 (configuration not stated) is ____.
14.4%

* * *

Below, each entry is listed alongside its reported cytotoxicity at 70.5 h.
Experiment: Human HepG2 cell viability assay in 384 well format
Format: toxicity, cell-based
Set-up: dose 125 nL, time 70.5 hour; concentration not given beside the values
Settings: HepG2 cells, read-out: Inhibition
Dear colleague, please return just the value in %, with no unit written.

See these solved cases before continuing.
In [3]: df
Out[3]:
                                   molecule  numeric_readout
0  COCC1CN(Cc2ccc(C)s2)Cc2nnn(C)c21 (stereo unspecified)              2.8
1  COc1c(C2CCCN2c2ncnc3ccsc23)c(C)nn1C (stereo unspecified)            -3.57
2   CC(C)c1nnc2n1CCN(C(=O)CN1CCc3sccc3C1)C2            -4.56

Returns the measured cytotoxicity at 70.5 h for the input molecule. Input: O=C(NCCn1ccnc1)N1CCCC1c1ccsc1 (stereo unspecified)
-4.3

I'd like to know its cytotoxicity at 70.5 h. The molecule in question is CC(C(N)=O)N1CCN(c2ncc(Cl)cn2)CC1 (stereo unspecified)
-5.36

For c1ccc(N2CCCC(c3nc(-c4cccnn4)no3)C2)nc1 (stereo unspecified) , what is its reported cytotoxicity at 70.5 h?
-11.5

* * *

Test: Human HepG2 cell viability assay in 384 well format
Type: toxicity, cell-based
Design: dose 125 nL, time 70.5 hour; concentration not given beside the values
Conditions: HepG2 cells, read-out: Inhibition
MEASURED PROPERTY: cytotoxicity at 70.5 h (%)
The response must be a number in % with no trailing unit.

Reference set (8 entries):
In [3]: df
Out[3]:
                                   molecule       measured_property  numeric_readout
0  COc1ccc(N2CCC(N3C[C@H](NC(C)=O)[C@@H](C(C)C)C3)CC2)cc1  cytotoxicity at 70.5 h            -7.18
1  O=C1NCC(C(=O)Nc2ncc(Cc3ccccc3)s2)N1 (stereo not given)  cytotoxicity at 70.5 h             44.7
2  Cc1ccc(C(=O)N2CCN3C[C@H](Oc4cncnc4)C[C@H]3C2)cn1  cytotoxicity at 70.5 h           -0.158
3  Cc1noc(C)c1-c1cnc(CC2CCN(C(=O)c3cc[nH]n3)C2)cn1 (stereo not given)  cytotoxicity at 70.5 h              -12
4  CN(C)C(=O)CN1CCC2(COCc3cnc(N4CCOCC4)nc32)C1 (stereo not given)  cytotoxicity at 70.5 h             19.8
5  CC(C)[C@@H]1CN(c2ccc(C(F)(F)F)cn2)C[C@H]1NS(C)(=O)=O  cytotoxicity at 70.5 h             21.5
6   COC(=O)c1cccc(OCCn2nc(-c3cccs3)oc2=O)c1  cytotoxicity at 70.5 h            -21.5
7  CCC(C)NC(=O)CCNC(=O)Nc1ccc(-n2cncn2)c(F)c1 (stereo not given)  cytotoxicity at 70.5 h            -10.1

# input molecule: Cc1nnc(C(NS(=O)(=O)c2cc(F)c(C)cc2F)C(C)C)[nH]1 (stereo not given) ; wanted: its cytotoxicity at 70.5 h
-5.12

Which measured cytotoxicity at 70.5 h value corresponds to Cn1cccc1C(=O)N1CCN(Cc2ccncc2)c2ncccc2C1 ?
-7.79

Every entry's value here was drawn from ChEMBL document CHEMBL3507680.
